Target: human GR (Homo sapiens, UniProt P04150)
Construct: naturally expresses the human GR; endogenous in cells
Sequence (P04150 1-777): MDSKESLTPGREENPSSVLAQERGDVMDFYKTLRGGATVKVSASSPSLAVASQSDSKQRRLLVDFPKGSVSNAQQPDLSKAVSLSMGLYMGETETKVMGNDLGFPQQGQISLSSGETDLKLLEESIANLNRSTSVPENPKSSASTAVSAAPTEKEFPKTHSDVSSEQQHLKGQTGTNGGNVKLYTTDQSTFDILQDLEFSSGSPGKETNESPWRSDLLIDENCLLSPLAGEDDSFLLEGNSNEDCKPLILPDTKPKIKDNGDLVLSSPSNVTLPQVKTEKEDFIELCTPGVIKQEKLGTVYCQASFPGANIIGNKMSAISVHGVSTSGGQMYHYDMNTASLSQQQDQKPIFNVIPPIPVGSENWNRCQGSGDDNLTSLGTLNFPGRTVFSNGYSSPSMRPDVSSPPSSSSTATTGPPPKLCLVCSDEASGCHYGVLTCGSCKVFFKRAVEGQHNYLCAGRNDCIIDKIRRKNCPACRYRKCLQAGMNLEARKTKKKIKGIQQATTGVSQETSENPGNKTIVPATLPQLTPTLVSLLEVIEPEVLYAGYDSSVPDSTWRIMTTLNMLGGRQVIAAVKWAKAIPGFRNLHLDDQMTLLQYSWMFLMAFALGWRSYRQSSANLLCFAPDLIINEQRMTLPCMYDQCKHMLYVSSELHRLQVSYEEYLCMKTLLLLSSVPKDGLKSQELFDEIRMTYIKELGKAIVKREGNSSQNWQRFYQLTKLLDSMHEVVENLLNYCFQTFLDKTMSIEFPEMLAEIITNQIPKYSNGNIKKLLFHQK
Experiment: Transrepression Assay (GITAR), TNFα-β-lactamase reporter in U937 cells
Assay type: cell-based
Details: inflection point (IP), TNFα promoter β-lactamase reporter, PMA/LPS
pEC50: −log10 of the molar value.
Quantity Measured: pEC50

Reference set (2 entries):
C[C@]12Cc3cnn(-c4ccc(F)cc4)c3C=C1CC[C@@]2(CO)CC(O)c1cccc(C(F)(F)F)c1 (single isomer, unassigned) [Example 7b]; 7.35
C[C@]12Cc3cnn(-c4cccc(F)c4)c3C=C1CC[C@@]2(CO)CC(O)c1ccccn1 (single isomer, unassigned) [Example 19b]; 7.13

P: C[C@]12Cc3cnn(-c4ccc(F)cc4)c3C=C1CC[C@@]2(CO)CC(O)c1cccc(C(F)(F)F)c1 (single isomer, unassigned) [Example 7a]
Q: C[C@]12Cc3cnn(-c4ccc(F)cc4)c3C=C1CC[C@@]2(CO)CC(O)C1CCCCC1 (single isomer, unassigned) [Example 18a]
R: C[C@]12Cc3cnn(-c4ccc(F)cc4)c3C=C1CC[C@@]2(CO)CC(O)c1ncccc1F (single isomer, unassigned) [Example 10b]
S: C[C@]12Cc3cnn(-c4ccccc4)c3C=C1CC[C@@]2(CO)CC(O)c1ccccn1 (single isomer, unassigned) [Example 23b]
Exam item: list the entries in increasing order of pEC50. Respond with the label ranking, as requested.
P, S, Q, R
